# experimental system: ZER1 (UniProt Q7Z7L7)
# Sequence (Q7Z7L7 whole entry, looked up): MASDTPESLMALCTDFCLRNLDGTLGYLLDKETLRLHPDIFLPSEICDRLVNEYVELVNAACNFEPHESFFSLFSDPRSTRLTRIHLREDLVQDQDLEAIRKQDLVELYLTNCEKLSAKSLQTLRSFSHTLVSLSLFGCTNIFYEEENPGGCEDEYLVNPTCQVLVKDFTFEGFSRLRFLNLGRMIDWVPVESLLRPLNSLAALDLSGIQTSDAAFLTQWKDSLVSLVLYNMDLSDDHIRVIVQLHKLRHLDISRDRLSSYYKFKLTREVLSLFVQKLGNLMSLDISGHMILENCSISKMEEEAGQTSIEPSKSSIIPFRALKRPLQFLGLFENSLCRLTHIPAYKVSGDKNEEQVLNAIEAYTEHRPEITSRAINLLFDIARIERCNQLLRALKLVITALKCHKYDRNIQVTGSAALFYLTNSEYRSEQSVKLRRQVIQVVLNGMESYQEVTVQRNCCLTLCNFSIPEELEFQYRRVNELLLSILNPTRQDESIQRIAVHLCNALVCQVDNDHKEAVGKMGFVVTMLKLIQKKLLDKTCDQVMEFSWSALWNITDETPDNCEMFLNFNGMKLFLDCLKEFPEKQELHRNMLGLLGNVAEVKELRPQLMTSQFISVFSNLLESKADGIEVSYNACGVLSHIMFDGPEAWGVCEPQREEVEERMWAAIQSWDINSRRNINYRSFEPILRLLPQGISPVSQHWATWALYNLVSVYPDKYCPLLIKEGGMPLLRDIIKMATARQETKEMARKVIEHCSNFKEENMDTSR
# experimental details: log2 fold change, soluble protein after heating vs DMSO (PISA); higher = thermal stabilisation; K562 cells, 10 uM, 30 min; active = over 0.2 and 3.5 SD of the protein, either way, in both replicates (recomputed)
The full data set covers some 7,900 targets. This sample favours those with a hit. About 0.6% of all pairs of compound and target were hits.
Assignment: determine reported log2 fold change for the given compounds.

Known log2 fold change results, listed for orientation:
# compound, log2 fold change
records = [
    ("Cc1ccc(NC(=O)c2cccc(N(C)C)c2)cc1NC(=O)c1ccc(O)cc1", "-0.059 (inactive)"),
    ("c1cc(OCCN2CCCCC2)cc(-c2n[nH]c3ccc(-c4nnc[nH]4)cc23)c1", "0.023 (inactive)"),
    ("O=C(O)c1ccc2c(c1)nc(Nc1cccc(Cl)c1)c1ccncc12", "0.028 (inactive)"),
]

Please look at the items below and tell me log2 fold change for each one, in order.
1. Cc1nc(Nc2n[nH]c3c2CN(C(=O)N[C@H](CN(C)C)c2ccccc2)C3(C)C)c2sccc2n1
2. CC(C)C[C@@H](C=O)NC(=O)[C@H](CC(C)C)NC(=O)[C@H](CC(C)C)NC(=O)OCc1ccccc1

-0.141 (inactive)
0.039 (inactive)

Please look at the items below and tell me log2 fold change for each one, in order.
1. c1cn2cc(-c3ccc4cn[nH]c4c3)nc(Nc3ccc(N4CCOCC4)cc3)c2n1
2. Cn1cc(-c2ccc3c(c2)CCN3C(=O)Cc2cccc(C(F)(F)F)c2)c2c(N)ncnc21
3. NC(=O)c1ccc2nc(-c3ccc(Oc4ccc(Cl)cc4)cc3)[nH]c2c1
4. Cn1cncc1[C@@](N)(c1ccc(Cl)cc1)c1ccc2c(c1)c(-c1cccc(Cl)c1)cc(=O)n2C
5. Cc1cccc(-c2[nH]c(C(C)(C)C)nc2-c2ccc3nccnc3c2)n1

["0.036 (inactive)", "-0.021 (inactive)", "-0.311 (inactive)", "0.111 (inactive)", "-0.248 (inactive)"]

###

Assignment: determine reported log2 fold change for the given molecules.
# experimental system: ZFPL1 (UniProt O95159)
# Sequence (O95159 whole entry, looked up): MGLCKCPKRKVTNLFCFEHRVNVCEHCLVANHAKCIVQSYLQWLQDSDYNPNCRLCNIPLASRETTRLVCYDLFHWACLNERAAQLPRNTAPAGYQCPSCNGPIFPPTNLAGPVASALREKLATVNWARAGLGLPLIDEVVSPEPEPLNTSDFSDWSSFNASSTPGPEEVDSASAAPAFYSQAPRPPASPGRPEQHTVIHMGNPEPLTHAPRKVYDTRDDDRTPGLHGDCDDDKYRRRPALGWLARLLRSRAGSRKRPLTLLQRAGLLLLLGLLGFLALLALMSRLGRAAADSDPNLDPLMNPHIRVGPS
# experimental details: log2 fold change, soluble protein after heating vs DMSO (PISA); higher = thermal stabilisation; K562 cells, 10 uM, 30 min; active = over 0.2 and 3.5 SD of the protein, either way, in both replicates (recomputed)
The full data set covers some 7,900 targets. This sample favours those with a hit. About 0.6% of all pairs of compound and target were hits.
One number for each entry.

# molecule, experimental system, value reported
records = [
    ("CN(CCOc1ccc(C[C@@H]2SC(=O)NC2=O)cc1)c1ccccn1 (racemic)", "ZFPL1 (UniProt O95159)", -0.03),
    ("NC(=O)c1cnc(N[C@@H]2CCCC[C@@H]2N)nc1Nc1cccc(-n2nccn2)c1", "ZFPL1 (UniProt O95159)", 0.054),
    ("NCC(=O)Nc1ccc(-n2nc(C(F)(F)F)cc2-c2ccc3c(ccc4ccccc43)c2)cc1", "ZFPL1 (UniProt O95159)", 0.027),
]

Please look at the items below and tell me log2 fold change for each one, in order.
1. NC1(Cc2ccc(Cl)cc2)CCN(c2ncnc3[nH]ccc23)CC1
2. COC(=O)N[C@@H](C)CNc1nccc(-c2cn(C(C)C)nc2-c2cc(Cl)cc(NS(C)(=O)=O)c2F)n1
3. O=C(O)c1ccc2c(c1)nc(Nc1cccc(Cl)c1)c1ccncc12
4. Cc1cc(SCc2sc(-c3ccc(C(F)(F)F)cc3)nc2C)ccc1OCC(=O)O
5. CC[C@H](C)n1cc(C)c2c(C(=O)NCc3c(C)cc(C)[nH]c3=O)cc(-c3ccc(N4CCNCC4)nc3)cc21
6. Cn1c2cc(S(C)=O)sc2c2cnn(Cc3cccc(N)c3)c(=O)c21 (centres undefined)

[0.071, -0.026, 0.003, 0.025, -0.013, -0.031]

###

# experimental system: YOD1 (UniProt Q5VVQ6)
# Sequence (Q5VVQ6 whole entry, looked up): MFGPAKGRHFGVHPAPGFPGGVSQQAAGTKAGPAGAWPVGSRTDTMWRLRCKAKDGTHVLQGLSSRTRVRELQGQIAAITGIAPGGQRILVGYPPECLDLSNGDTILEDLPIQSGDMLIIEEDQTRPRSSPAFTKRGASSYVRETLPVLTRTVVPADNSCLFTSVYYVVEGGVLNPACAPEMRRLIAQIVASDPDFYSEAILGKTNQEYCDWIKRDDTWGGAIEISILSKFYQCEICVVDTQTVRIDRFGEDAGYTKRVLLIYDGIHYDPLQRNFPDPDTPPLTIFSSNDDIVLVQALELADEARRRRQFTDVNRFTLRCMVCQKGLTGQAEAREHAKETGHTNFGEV
# experimental details: log2 fold change, soluble protein after heating vs DMSO (PISA); higher = thermal stabilisation; K562 cells, 10 uM, 30 min; active = over 0.2 and 3.5 SD of the protein, either way, in both replicates (recomputed)
About 7,900 targets were measured; listed, in parts, are those with a hit and a random draw of the rest. About 0.6% of all pairs of compound and target were hits.
Tick Y if log2 fold change is -0.01 or greater. Tick N if log2 fold change is less than -0.01.

See these solved cases before continuing.
# smiles text, experimental system, class
data = [
    ("CC(C)(C)Cn1c(N)nc2ccc(-c3[nH]c(C(C)(C)C)nc3-c3ccc(F)cc3)nc21", "YOD1 (UniProt Q5VVQ6)", "Y"),
    ("Cc1cc(Nc2cc(CN3CCOCC3)c3nc(C)c(Cc4ccc(Cl)cc4F)n3n2)n[nH]1", "YOD1 (UniProt Q5VVQ6)", "N"),
    ("Cc1nc(Nc2ncc(C(=O)Nc3c(C)cccc3Cl)s2)cc(N2CCN(CCO)CC2)n1", "YOD1 (UniProt Q5VVQ6)", "N"),
]

Quick check: does Cc1ncc(-c2ccnc(Nc3ccc(S(C)(=O)=O)cc3)n2)n1C(C)C have log2 fold change greater than or equal to -0.01? N

###

# experimental system: YIPF5 isoform 3 (UniProt Q969M3)
# Sequence (Q969M3 whole entry, looked up, canonical isoform): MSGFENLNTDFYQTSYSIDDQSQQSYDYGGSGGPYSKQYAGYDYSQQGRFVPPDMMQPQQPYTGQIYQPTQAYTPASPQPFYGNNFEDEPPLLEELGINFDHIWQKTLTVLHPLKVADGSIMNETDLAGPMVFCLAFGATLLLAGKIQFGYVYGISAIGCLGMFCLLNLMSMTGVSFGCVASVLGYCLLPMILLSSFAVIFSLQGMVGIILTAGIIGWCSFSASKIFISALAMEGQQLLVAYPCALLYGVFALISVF
# experimental details: log2 fold change, soluble protein after heating vs DMSO (PISA); higher = thermal stabilisation; K562 cells, 10 uM, 30 min; active = over 0.2 and 3.5 SD of the protein, either way, in both replicates (recomputed)
Targets with a hit are over-represented here; the source holds about 7,900 in all. About 0.6% of all pairs of compound and target were hits.
Bucketed by reported log2 fold change, buckets being low value = under -0.04, medium value = from -0.04 up to 0.02, high value = 0.02 and over

// bin(item) where item = Cc1ncc(-c2ccnc(Nc3ccc(S(C)(=O)=O)cc3)n2)n1C(C)C medium value

// bin(item) where item = CS(=O)(=O)CCNCc1ccc(-c2ccc3ncnc(Nc4ccc(OCc5cccc(F)c5)c(Cl)c4)c3c2)o1 low value

// bin(item) where item = Cc1cccc(-c2[nH]c(C(C)(C)C)nc2-c2ccc3nccnc3c2)n1 low value

// bin(item) where item = Cc1nc(Nc2ncc(C(=O)Nc3c(C)cccc3Cl)s2)cc(N2CCN(CCO)CC2)n1 high value

// bin(item) where item = CC(=O)c1cnc2ccc(-c3cc(Cl)c(O)c(Cl)c3)nc2c1N[C@H]1CC[C@H](CN(C)C)CC1 high value

// bin(item) where item = CC(C)C[C@@H](C=O)NC(=O)[C@H](CC(C)C)NC(=O)[C@H](CC(C)C)NC(=O)OCc1ccccc1 medium value

// bin(item) where item = O=C(CCCCCCC(=O)Nc1ccccc1)NO high value

// bin(item) where item = CC[C@H](C)[C@H](NC(=O)[C@H]([C@@H](C)CC)N(C)C(C)=O)C(=O)N[C@H](C(=O)N[C@@H](CC(C)C)C(=O)[C@@]1(C)CO1)[C@@H](C)O high value

// bin(item) where item = CN1CCC(CNc2ccc3ncc(-c4cccc(OC(F)(F)F)c4)n3n2)CC1 low value

// bin(item) where item = Cc1cc(Nc2cc(CN3CCOCC3)c3nc(C)c(Cc4ccc(Cl)cc4F)n3n2)n[nH]1 low value

// bin(item) where item = CC(C)(C)Cn1c(N)nc2ccc(-c3[nH]c(C(C)(C)C)nc3-c3ccc(F)cc3)nc21 low value

// bin(item) where item = Cc1cc(Nc2cc(N3CCN(C)CC3)nc(Sc3ccc(NC(=O)C4CC4)cc3)n2)n[nH]1 low value

// bin(item) where item = c1cn2cc(-c3ccc4cn[nH]c4c3)nc(Nc3ccc(N4CCOCC4)cc3)c2n1 low value

// bin(item) where item = CC1=C(C(=O)Nc2cc3cn[nH]c3cc2F)C(c2ccc(C(F)(F)F)cc2)CC(=O)N1 (centres undefined) medium value

// bin(item) where item = COc1cc(C(=O)O)ccc1NC(=O)[C@@H]1N[C@@H](CC(C)(C)C)[C@](C#N)(c2ccc(Cl)cc2F)[C@H]1c1cccc(Cl)c1F low value

###

# experimental system: YAE1 (UniProt Q9NRH1)
# Sequence (Q9NRH1 whole entry, looked up): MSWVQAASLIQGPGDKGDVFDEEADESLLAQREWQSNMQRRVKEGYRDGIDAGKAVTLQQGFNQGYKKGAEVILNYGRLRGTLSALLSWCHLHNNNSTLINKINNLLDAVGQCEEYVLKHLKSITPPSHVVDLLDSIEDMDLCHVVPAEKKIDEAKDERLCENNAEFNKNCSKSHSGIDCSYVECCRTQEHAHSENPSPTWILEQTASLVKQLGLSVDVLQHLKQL
# experimental details: log2 fold change, soluble protein after heating vs DMSO (PISA); higher = thermal stabilisation; K562 cells, 10 uM, 30 min; active = over 0.2 and 3.5 SD of the protein, either way, in both replicates (recomputed)
Targets with a hit are over-represented here; the source holds about 7,900 in all. About 0.6% of all pairs of compound and target were hits.
Tick condition met if log2 fold change is 0.02 or greater. Tick condition not met if log2 fold change is less than 0.02.

# smiles text, class
data = [
    ("CC(C)(C)Cn1c(N)nc2ccc(-c3[nH]c(C(C)(C)C)nc3-c3ccc(F)cc3)nc21", "condition met"),
]

Quick check: does COc1cccc2cc(-c3nc([C@H]4CC[C@H](C(=O)O)CC4)n4ncnc(N)c34)[nH]c12 have log2 fold change greater than or equal to 0.02? condition not met

Quick check: does COc1cc(Nc2ncc3c(n2)-c2ccc(Cl)cc2C(c2c(F)cccc2OC)=NC3)ccc1C(=O)O have log2 fold change greater than or equal to 0.02? condition not met

Quick check: does Cc1cc(SCc2sc(-c3ccc(C(F)(F)F)cc3)nc2C)ccc1OCC(=O)O have log2 fold change greater than or equal to 0.02? condition met

Quick check: does CON(C)C(=O)N1N=C(c2cc(F)ccc2F)S[C@@]1(CCCN)c1ccccc1 have log2 fold change greater than or equal to 0.02? condition met

Quick check: does c1cc(OCCN2CCCCC2)cc(-c2n[nH]c3ccc(-c4nnc[nH]4)cc23)c1 have log2 fold change greater than or equal to 0.02? condition not met

FYI, the data here is from the supplement of paper PMC10849652.
